Reference source: paper PMC3669024

target.desc: Trica5-HT1 (Tribolium castaneum)
Sequence (R9ULB8 entry or part of it): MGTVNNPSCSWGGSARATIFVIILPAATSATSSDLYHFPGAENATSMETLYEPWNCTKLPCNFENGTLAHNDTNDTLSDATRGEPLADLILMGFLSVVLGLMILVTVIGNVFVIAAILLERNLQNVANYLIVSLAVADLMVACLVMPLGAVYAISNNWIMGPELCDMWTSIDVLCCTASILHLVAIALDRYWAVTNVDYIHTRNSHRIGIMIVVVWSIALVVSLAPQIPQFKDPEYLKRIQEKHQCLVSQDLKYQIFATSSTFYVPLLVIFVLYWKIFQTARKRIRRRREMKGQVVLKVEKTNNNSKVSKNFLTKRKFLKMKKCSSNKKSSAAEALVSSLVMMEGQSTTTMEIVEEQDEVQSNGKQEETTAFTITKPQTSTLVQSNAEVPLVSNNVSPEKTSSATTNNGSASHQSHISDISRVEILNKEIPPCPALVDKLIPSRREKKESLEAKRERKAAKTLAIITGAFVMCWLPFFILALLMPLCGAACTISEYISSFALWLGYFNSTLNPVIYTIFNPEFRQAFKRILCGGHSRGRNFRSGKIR
assay.details: CRE-luciferase reporter-gene assay, NKH-477 stimulated cAMP in HEK293 cells expressing Trica5-HT1
Type: cell-based
assay.context: NKH-477 stimulated cAMP, read-out: Half maximal reduction of cAMP
Counter-ions that a name gives are not always drawn.
measure.name: IC50 (nM)
API: value field is a number in nM; no unit string.

Qu. Give the measured IC50 of NCCc1c[nH]c2ccc(O)cc12 [5-HT, 5-HT hydrochloride] .
Ans. 82.7

----------
target.desc: Trica5-HT1 (Tribolium castaneum)
assay.details: Aequorin-luminescence assay, agonist activation of Trica5-HT1 in CHO-WTA11 cells (apoaequorin + Gα16)
Type: cell-based
assay.context: EC50, receptor activation in CHO-WTA11 cells
Protocol: General binding studies were performed in Chinese hamster ovary (CHO) WTA11 cells stably coexpressing apoaequorin and the promiscuous Gα16. This allowed us to measure the pharmacology independent of the downstream signaling. […] The transfected CHO cells were detached with phosphate buffered saline (PBS) containing 0.2% EDTA and collected in DMEM/F-12 (without phenol red, with L-glutamine and 10 mM HEPES) (Gibco). The amount of viable cells was determined using the NucleoCounter NC-100+TM (Chemometic). […]
Structures can show the parent of a compound that is named as a salt.
measure.name: EC50 (µM)
API: value field is a number in µM; no unit string.

Qu. Give the measured EC50 of CCCN(CCC)C1CCc2cccc(O)c2C1 (racemic) .
Ans. 551

Qu. Give the measured EC50 of NCCc1c[nH]c2ccc(O)cc12 [5-HT, 5-HT hydrochloride] .
Ans. 0.095
